Target: T1, Mouse CTGF protein-His tag (mouse, UniProt P29268 26-348)
T1 construct: C-terminal His tag; also called mouse CTGF-his protein; mouse CTGF fusion protein
T1 sequence: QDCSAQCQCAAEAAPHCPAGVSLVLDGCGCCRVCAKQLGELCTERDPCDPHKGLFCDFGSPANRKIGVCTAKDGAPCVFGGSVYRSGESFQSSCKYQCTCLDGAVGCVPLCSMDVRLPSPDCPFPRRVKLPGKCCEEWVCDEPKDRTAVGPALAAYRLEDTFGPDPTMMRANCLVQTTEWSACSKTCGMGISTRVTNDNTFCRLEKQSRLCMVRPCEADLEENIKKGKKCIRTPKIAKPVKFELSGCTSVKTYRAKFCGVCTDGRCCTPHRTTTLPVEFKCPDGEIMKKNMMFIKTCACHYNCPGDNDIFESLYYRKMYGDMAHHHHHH
Assay: ELISA, plate coated with mouse CTGF-his
For each of the binders below, state its EC50.
Answers are plain numbers, in nM.

Hu147-31wk (antibody, human IgG1, kappa, V domains shown) VH: EVQLVESGGGLVQPGGSLRLSCAASGFSFNTYAMNWVRQAPGKGLEWVARIRTKSNNYATYYADSVKDRFTISRDDSESSLYLQMNSLKTEDTAVYYCVETGFAYWDQGTLVTVSS VL: EIVLTQSPATLSLSPGERATLSCSASSSVSYMHWFQQKPGQSPRLLIYSTSNLASGIPARFSGSGSGTDYTLTISSLEPEDFAVYYCQQRSSYPLTFGQGTKLEIKR : 0.32

[ask] Recorded EC50 for Hu147-14wk (antibody, human IgG1, kappa, V domains shown) VH: EVQLVESGGGLVQPGGSLRLSCAASGFTFSTYAMNWVRQAPGKGLEWVGRIRTKSNNYATYYADSVKDRFTISRDDSKNSLYLQMNSLKTEDTAVYYCVETGFAYWDQGTLVTVSS VL: DIQMTQSPSSLSASVGDRVTITCSASSSVSYMHWFQQKPGKSPKLLIYSTSNLASGVPSRFSGSGSGTDYTLTISSLQPEDFATYYCQQRSSYPLTFGQGTKLEIKR , please?
[reply] 0.431
